# Organism: Oryctolagus cuniculus
# measurement_notes: Percent inhibition of [14C]aminopyrine (AP) accumulation stimulated by dibutyryl cyclic AMP in isolated rabbit parietal cells
# Type: functional
Listed next: entries and their corresponding IC50.
Quote the value and follow it with the unit of measurement.

COCOCCOc1cc(OC)ccc1C[S+]([O-])c1ncccc1C(=O)Nc1ccncc1 (configuration not stated) :: 2000 nM

Consider the molecule COCOc1cc(OC)ccc1C[S+]([O-])c1ncccc1C(=O)Nc1ccncc1 (configuration not stated) . State its measured IC50. 2200 nM

====

# target_entity: Potassium-transporting ATPase (Oryctolagus cuniculus)
# measurement_notes: Inhibition of [14C]aminopyrine (AP) accumulation stimulated by dibutyryl cyclic AMP in isolated rabbit parietal cells
Listed next: entries and their corresponding pIC50.
Note: pIC50 values are expressed as the negative base-10 logarithm of concentration in M.

Examples from the recorded data:
COc1cc(C)c(C[S+]([O-])c2ncccc2C(=O)Nc2ccncc2)c(OC)c1 (stereo unspecified) :: 6.34
COc1cccc(OC)c1C[S+]([O-])c1ncccc1C(=O)Nc1ccncc1 (stereo unspecified) :: 4.59

--- query ---
Consider the compound COc1cc(OC)c(C[S+]([O-])c2ncccc2C(=O)Nc2ccncc2)cc1Br (stereo unspecified) . State its measured pIC50. 5.72

====

# Organism: Rattus norvegicus
# measurement_notes: Inhibition of histamine induced gastric acid secretion in pylorus-ligated rats
# Format: functional
# experimental_setup: Stomach
Returns: string. Value is 1 (yes) if measured ED50 is below 7 mg/kg, and 0 (no) if it is greater than or equal to it.

COc1ccc(C[S+]([O-])c2ncccc2C(=O)Nc2ccncc2)c(OC)c1 (configuration not stated) :: 1 (yes)
CCOc1ccc(C[S+]([O-])c2ncccc2C(=O)Nc2ccncc2)c(OCC)c1 (configuration not stated) :: 0 (no)
COc1ccc2[nH]c([S+]([O-])Cc3ncc(C)c(OC)c3C)nc2c1 (configuration not stated) :: 1 (yes)
COc1ccc(C[S+]([O-])c2ncccc2C(=O)Nc2ccncc2)c(OCCF)c1 (configuration not stated) :: 0 (no)

Consider CCOc1cc(OC)ccc1C[S+]([O-])c1ncccc1C(=O)Nc1ccncc1 (configuration not stated) . Does its ED50 lie strictly below 7 mg/kg? 0 (no)

Consider COc1cc(C)c(C[S+]([O-])c2ncccc2C(=O)Nc2ccncc2)c(OC)c1 (configuration not stated) . Does its ED50 lie strictly below 7 mg/kg? 1 (yes)

====

# target_entity: Potassium-transporting ATPase (Sus scrofa)
# Sequence (P18434 whole entry): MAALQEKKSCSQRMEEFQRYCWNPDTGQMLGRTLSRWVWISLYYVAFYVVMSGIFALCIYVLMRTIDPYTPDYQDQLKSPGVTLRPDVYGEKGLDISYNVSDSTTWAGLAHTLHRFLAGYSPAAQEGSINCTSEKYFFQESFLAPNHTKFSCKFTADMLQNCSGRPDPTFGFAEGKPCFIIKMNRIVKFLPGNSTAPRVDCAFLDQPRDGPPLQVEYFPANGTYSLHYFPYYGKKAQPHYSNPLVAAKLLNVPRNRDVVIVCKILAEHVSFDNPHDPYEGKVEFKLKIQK
# Sequence (P19156 whole entry): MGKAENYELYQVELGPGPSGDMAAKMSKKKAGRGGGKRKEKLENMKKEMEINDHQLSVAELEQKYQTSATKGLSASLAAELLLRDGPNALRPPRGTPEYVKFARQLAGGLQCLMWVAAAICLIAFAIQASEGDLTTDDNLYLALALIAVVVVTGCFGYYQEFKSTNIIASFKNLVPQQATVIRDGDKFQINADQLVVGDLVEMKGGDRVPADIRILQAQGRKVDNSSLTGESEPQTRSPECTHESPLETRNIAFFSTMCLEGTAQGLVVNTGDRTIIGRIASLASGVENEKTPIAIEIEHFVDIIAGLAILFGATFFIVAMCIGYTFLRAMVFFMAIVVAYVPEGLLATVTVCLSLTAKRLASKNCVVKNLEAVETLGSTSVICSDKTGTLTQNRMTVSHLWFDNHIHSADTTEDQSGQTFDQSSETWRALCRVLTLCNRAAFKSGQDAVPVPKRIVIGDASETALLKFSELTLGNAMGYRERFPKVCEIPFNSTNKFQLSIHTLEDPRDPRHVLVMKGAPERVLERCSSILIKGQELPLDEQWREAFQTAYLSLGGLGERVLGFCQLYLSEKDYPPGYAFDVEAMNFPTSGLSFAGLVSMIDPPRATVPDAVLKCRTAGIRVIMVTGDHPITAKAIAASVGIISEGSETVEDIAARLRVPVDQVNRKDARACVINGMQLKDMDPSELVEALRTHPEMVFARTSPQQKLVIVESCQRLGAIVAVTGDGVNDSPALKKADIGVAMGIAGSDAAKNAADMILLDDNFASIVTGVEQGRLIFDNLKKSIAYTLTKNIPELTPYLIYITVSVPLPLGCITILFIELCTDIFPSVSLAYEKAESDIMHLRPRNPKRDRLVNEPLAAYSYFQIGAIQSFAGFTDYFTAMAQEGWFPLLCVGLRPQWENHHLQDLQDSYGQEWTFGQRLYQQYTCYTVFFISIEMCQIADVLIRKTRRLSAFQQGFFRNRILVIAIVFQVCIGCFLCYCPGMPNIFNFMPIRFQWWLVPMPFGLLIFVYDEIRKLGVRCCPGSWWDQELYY
# measurement_notes: Inhibition of porcine gastric H+/K+ ATPase
# Format: tissue-based, Stomach
Listed next: entries and their corresponding pIC50.
Note: pIC50 values are expressed as the negative base-10 logarithm of concentration in M.

COc1cc(OC)c(C[S+]([O-])c2ncccc2C(=O)Nc2ccncc2)c(OC)c1 (centres undefined) :: 5.14

--- query ---
Consider the compound O=c1c2cccnc2sn1-c1ccccc1 . State its measured pIC50. 6.72

====

Listed next: entries and their corresponding inhibition.
# Test system: Potassium-transporting ATPase (Oryctolagus cuniculus)
# measurement_notes: Percent inhibition of [14C]aminopyrine (AP) accumulation in dibutyryl cAMP stimulated rbbit parietal cells at 10 uM
Quote the value and follow it with the unit of measurement.

O=C(Nc1cccnc1)c1cccnc1[S+]([O-])C(c1ccccc1)c1ccccc1 (stereo not drawn) :: 43.7%

Consider the compound Nc1ccc(NC(=O)c2cccnc2[S+]([O-])C(c2ccccc2)c2ccccc2)cc1 (stereo not drawn) . State its measured inhibition. 57.4%

Consider the compound O=C(Nc1ccncc1)c1cccnc1[S+]([O-])C(c1ccccc1)c1ccccc1 (stereo not drawn) . State its measured inhibition. 55%

Sourced from ChEMBL document CHEMBL1130286
